Each entry below carries its reported half-life.
# procedure_text: in vivo
# study_conditions: mouse, 50 mg/kg
# Description: Half life in Plasmodium berghei infected mouse at 50 mg/kg treated with four once daily doses
outcome_measure: half-life (h)

CN1CCC(c2ccc3nc(Nc4ccc(C(F)(F)F)cn4)[nH]c3c2)CC1 : 18.5
CN1CCN(c2ccc3nc(Nc4ccc(C(F)(F)F)cn4)[nH]c3c2)CC1 : 5.4
Brc1ccc(Nc2nc3ccc(N4CCNCC4)cc3[nH]2)nc1 : 4.5

* * *

# procedure_text: in vivo
# study_conditions: rat, plasma, iv, 1 mg/kg
outcome_measure: AUC (µM·h)

CN1CCC(c2ccc3nc(Nc4ccc(C(F)(F)F)cn4)[nH]c3c2)CC1 : 6

* * *

# procedure_text: in vivo
# study_conditions: rat, iv, 1 mg/kg
# Description: Clearance in rat at 1 mg/kg, iv
outcome_measure: clearance (mL/min/kg)

CN1CCC(c2ccc3nc(Nc4ccc(C(F)(F)F)cn4)[nH]c3c2)CC1 : 14.9

* * *

# procedure_text: in vitro
# study_conditions: human, hepatocytes
# Description: Clearance in human hepatocytes assessed per million cells
Note to self: values exactly at 9 µL/min/1e6 cells are T. So hepatocyte CLint at or above 9 µL/min/1e6 cells is T, below is F.

Cc1ccc(Nc2nc3ccc(N4CCN(C)CC4)cc3[nH]2)nc1 : T
CN1CCN(Cc2ccc3nc(Nc4ccc(C(F)(F)F)cn4)[nH]c3c2)CC1 : F
Cc1nc(Nc2nc3cnc(N4CCN(C)CC4)cc3[nH]2)cc(C2CC2)c1F : T
CN1CCC(c2ccc3nc(Nc4ccc(C(F)(F)F)cn4)[nH]c3c2)CC1 : F

* * *

# System: Plasmodium falciparum
# procedure_text: microbe, parasite or virus in culture
# study_conditions: W2
# Description: Antiplasmodial activity against Plasmodium falciparum W2 harboring mutations conferring drug-resistance by SYBR-green based assay
outcome_measure: IC50

C[C@@H]1CC[C@H]2[C@@H](C)C(=O)O[C@@H]3O[C@@]4(C)CC[C@@H]1[C@]32OO4 [ARTEMISININ] : 6.5 nM
Cc1nc(Nc2nc3ccc(N4CCN(C)CC4)cc3[nH]2)ccc1F : 106 nM
Cc1ccc(Nc2nc3ccc(N4CCN(C)CC4)cc3[nH]2)nc1 : 437 nM

* * *

# procedure_text: in vivo
# study_conditions: mouse, plasma, 50 mg/kg
# Description: AUClast in Plasmodium berghei infected mouse at 50 mg/kg treated with four once daily doses
The following molecules are listed with their measured AUC(0-t) values.
outcome_measure: AUC(0-t) (µM·h)

Brc1ccc(Nc2nc3ccc(N4CCNCC4)cc3[nH]2)nc1 : 202
CN1CCC(c2ccc3nc(Nc4ccc(C(F)(F)F)cn4)[nH]c3c2)CC1 : 131
CN1CCN(c2ccc3nc(Nc4ccc(C(F)(F)F)cn4)[nH]c3c2)CC1 : 33.7

* * *

# procedure_text: physchem
# study_conditions: buffer
# Description: Aqueous solubility of the compound
This listing pairs compounds with measured solubility.
outcome_measure: solubility (µM)

Cc1ccc(Nc2nc3ccc(N4CCN(C)CC4)cc3[nH]2)nc1 : 1170
CN1CCC(c2ccc3nc(Nc4ccc(C(F)(F)F)cn4)[nH]c3c2)CC1 : 121
Cc1nc(Nc2nc3cnc(N4CCN(C)CC4)cc3[nH]2)cc(C2CC2)c1F : 5.6

* * *

# procedure_text: physchem
# study_conditions: buffer, pH 7.4
# Description: Lipophilicity, logD of the compound at pH 7.4
Property: logD; scope: individual compounds
outcome_measure: logD

CN1CCN(c2cc(Cl)c3nc(Nc4ccc(Br)cn4)[nH]c3c2)CC1 : 3
CN1CCN(Cc2ccc3nc(Nc4ccc(C(F)(F)F)cn4)[nH]c3c2)CC1 : 3.2
Cc1ccc(Nc2nc3ccc(N4CCN(C)CC4)cc3[nH]2)nc1 : 2.2
Cc1nc(Nc2nc3cnc(N4CCN(C)CC4)cc3[nH]2)cc(C2CC2)c1F : 3.9
CN1CCC(c2ccc3nc(Nc4ccc(C(F)(F)F)cn4)[nH]c3c2)CC1 : 3
